- experimental target: Photinus pyralis (firefly) luciferase (Photinus pyralis)
- Sequence (P08659 whole entry): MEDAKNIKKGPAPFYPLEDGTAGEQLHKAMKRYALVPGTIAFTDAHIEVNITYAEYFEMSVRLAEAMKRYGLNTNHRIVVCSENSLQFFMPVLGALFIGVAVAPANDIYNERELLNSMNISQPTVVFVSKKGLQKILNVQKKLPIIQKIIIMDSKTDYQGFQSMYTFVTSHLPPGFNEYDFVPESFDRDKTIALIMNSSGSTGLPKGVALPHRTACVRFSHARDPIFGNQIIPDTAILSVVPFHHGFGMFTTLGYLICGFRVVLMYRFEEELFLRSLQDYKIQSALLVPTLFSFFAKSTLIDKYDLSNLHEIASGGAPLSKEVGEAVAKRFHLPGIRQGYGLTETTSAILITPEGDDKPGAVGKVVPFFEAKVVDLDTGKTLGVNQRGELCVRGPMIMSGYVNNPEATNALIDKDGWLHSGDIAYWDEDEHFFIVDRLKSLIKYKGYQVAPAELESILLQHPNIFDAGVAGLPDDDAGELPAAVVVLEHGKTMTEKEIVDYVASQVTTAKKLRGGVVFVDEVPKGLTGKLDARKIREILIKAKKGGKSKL
- assay comment: biochemical
- Format: biochemical
experimental readout: pIC50
One number for each entry, as −log10 of the molar value.

Answered examples (3):
Reported pIC50, compound "O=[N+]([O-])c1c2ccccc2cc2ccccc12" : ____ 4.65

Reported pIC50 for "CN(C)c1ccc(N=NS(=O)(=O)O)cc1" : what is it? 4.36

Any idea what its pIC50 is? The compound is "COP(=S)(OC)Oc1ccc([N+](=O)[O-])c(C)c1" 4.17

Please look at the items below and tell me pIC50 for each one, in order.
1. O=C1c2ccccc2-c2ccccc21
2. c1ccc2c(c1)-c1cccc3c1c-2cc1ccccc13
3. OC(Cc1ccccc1Cl)(Cn1nc[nH]c1=S)C1(Cl)CC1 (stereo not shown)
4. CN(C)c1ccc2nc3ccc(=[N+](C)C)cc-3sc2c1
5. CCOP(=S)(OCC)Oc1cc(-c2ccccc2)on1

[4.17, 5.27, 4.18, 4.54, 4.48]

// each listed compound needs a value for pIC50
1. Cc1ccc2ccc3cccc4ccc1c2c34
2. Clc1ccccc1-c1nc(-c2ccncc2)no1 [Pifexole]

[4.35, 5.49]

====

- experimental target: CYP3A4 (Homo sapiens, UniProt P08684)
- Sequence (P08684 whole entry): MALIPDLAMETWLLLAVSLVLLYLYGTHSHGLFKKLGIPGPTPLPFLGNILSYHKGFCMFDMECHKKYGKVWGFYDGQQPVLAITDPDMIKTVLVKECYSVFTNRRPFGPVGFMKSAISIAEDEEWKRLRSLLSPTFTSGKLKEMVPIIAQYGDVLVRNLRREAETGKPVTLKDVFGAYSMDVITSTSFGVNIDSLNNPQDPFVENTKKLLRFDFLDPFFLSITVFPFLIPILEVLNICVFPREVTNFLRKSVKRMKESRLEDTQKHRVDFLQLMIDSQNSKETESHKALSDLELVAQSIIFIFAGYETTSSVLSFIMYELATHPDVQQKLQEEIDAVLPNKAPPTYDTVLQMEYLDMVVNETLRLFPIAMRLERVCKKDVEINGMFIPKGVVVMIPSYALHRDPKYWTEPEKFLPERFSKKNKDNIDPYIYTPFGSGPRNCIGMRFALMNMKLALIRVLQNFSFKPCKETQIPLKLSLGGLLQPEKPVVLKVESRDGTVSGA
Counter-ions that a name gives are not always drawn.
experimental readout: CYP3A4 Efficacy (in parenthesis)

// lookup CYP3A4 Efficacy (in parenthesis) for CCCOC/C(=N\c1ccc(Cl)cc1C(F)(F)F)n1ccnc1 [Triflumizole] 0.21 ± 0.07 (-78 ± 2) %

Please report CYP3A4 Efficacy (in parenthesis) for every entry that follows.
1. C=CC(=O)OCC(CO)(COC(=O)C=C)COC(=O)C=C [Pentaerythritol triacrylate]
2. Cn1ccc2cc3c(cc21)CCN3C(=O)Nc1cccnc1 [SB-206553]
3. C=CCOC(=O)C(C)(C)OC(=O)c1cc(-n2c(=O)cc(C(F)(F)F)n(C)c2=O)ccc1Cl [Butafenacil]
4. CCCCN1CCCC[C@H]1C(=O)Nc1c(C)cccc1C [Levobupivacaine hydrochloride]
5. Oc1cc2ccccc2c2ccccc12 [9-Phenanthrol]
6. Brc1c2ccccc2cc2ccccc12 [9-Bromoanthracene]

["0.93 ± 0.39 (-89 ± 6) %", "3.55 ± 0.64 (-82 ± 5) %", "0.51 ± 0.14 (-90 ± 4) %", "9.59 ± 2.39 (-54 ± 7) %", "6.1 ± 0.4 (-91 ± 4) %", "25.01 ± 9.91 (-59 ± 38) %"]

Go through the list and state CYP3A4 Efficacy (in parenthesis) for each entry.
1. CCOP(=O)([O-])OCC.CCn1cc[n+](C)c1
2. OC(c1ccc(Cl)cc1)(c1ccc(Cl)cc1)c1cccnc1 [Parinol]
3. CCOP(=S)(OCC)SCn1nnc2ccccc2c1=O [Azinphos-ethyl]
4. CCOP(=S)(OCC)Oc1cc(Cl)c(Br)cc1Cl [Bromophos-ethyl]
5. CCCCC(C#N)(Cn1cncn1)c1ccc(Cl)cc1 (centres unmarked) [Myclobutanil]
6. FC(F)C(F)(F)OCC(Cn1cncn1)c1ccc(Cl)cc1Cl (centres unmarked) [Tetraconazole]
7. Cc1ccc([N+](=O)[O-])[c]2c1[O][Hg]2 [Nitromersol]

45.03 ± 9.43 (-76 ± 7) %
2.75 ± 0.47 (-69 ± 3) %
1.87 ± 0.34 (-77 ± 3) %
1.97 ± 0.48 (-79 ± 2) %
0.17 ± 0.05 (-75 ± 2) %
0.25 ± 0.06 (-66 ± 2) %
8.08 ± 0.55 (-86 ± 6) %

Okay, here is my list. What is CYP3A4 Efficacy (in parenthesis) for each of these?
1. COP(=S)(OC)SCn1nnc2ccccc2c1=O [Azinphos-methyl]
2. Clc1ccc(C(c2ccccc2Cl)C(Cl)(Cl)Cl)cc1 (centres unmarked) [o,p'-DDT]
3. O=S(=O)(Oc1ccc(Cl)cc1)c1ccc(Cl)cc1 [Chlorfenson]
4. OC(c1ccc(F)cc1)(c1cncnc1)c1ccccc1Cl (centres unmarked) [Nuarimol]
5. CC(C1CC1)C(O)(Cn1cncn1)c1ccc(Cl)cc1 (centres unmarked) [Cyproconazole]

["11.45 ± 2.62 (-87 ± 5) %", "11.59 ± 3.23 (99 ± 19) %", "6.8 ± 1.64 (41 ± 6) %", "0.31 ± 0.08 (-68 ± 6) %", "0.97 ± 0.57 (-70 ± 7) %"]

For Clc1ccc(C2(Cn3cncn3)OCCO2)c(Cl)c1 [Azaconazole] , what is its reported CYP3A4 Efficacy (in parenthesis)? 0.48 ± 0.03 (-62 ± 7) %
